Biological target: Serine/threonine-protein kinase PLK1 (Homo sapiens) (UniProt P53350)
Sequence (P53350 whole entry, looked up, the tested form may be a part): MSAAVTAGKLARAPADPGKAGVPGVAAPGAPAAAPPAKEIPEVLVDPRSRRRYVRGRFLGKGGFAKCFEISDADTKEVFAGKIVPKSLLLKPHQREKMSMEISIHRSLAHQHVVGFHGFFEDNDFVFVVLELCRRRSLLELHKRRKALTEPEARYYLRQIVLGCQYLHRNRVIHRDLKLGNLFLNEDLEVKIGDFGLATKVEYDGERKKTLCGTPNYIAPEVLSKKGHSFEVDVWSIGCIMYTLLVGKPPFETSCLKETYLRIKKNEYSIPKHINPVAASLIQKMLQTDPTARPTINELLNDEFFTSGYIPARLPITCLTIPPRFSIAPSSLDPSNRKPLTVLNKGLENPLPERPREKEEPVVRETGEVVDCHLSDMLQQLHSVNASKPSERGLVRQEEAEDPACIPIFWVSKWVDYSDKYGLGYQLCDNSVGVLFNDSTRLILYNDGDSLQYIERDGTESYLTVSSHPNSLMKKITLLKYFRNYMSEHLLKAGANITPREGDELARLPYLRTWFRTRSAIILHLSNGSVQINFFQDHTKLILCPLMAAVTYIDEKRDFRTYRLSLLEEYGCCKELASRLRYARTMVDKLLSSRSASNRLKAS
Test: Plk1 polo box domain binding inhibitors, primary screen, biochemical, fluorescence polarization (AID 693)
Conditions: Plk1 PBD phosphopeptide binding, active compounds read high,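 tested at about 20 µM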
Out of some 97,000 compounds screened, about 130 (0.13%) were called active. The sample holds actives, similar compounds and a random draw of the others, so the mix is not that of the screen.
Field: inhibition. Provide a value for each of the molecules that follow.
All answers are understood in %, so give the number only.

Identify the measured inhibition of CC1(C)CC(CC(=O)O)C(=O)O1 (stereo unspecified) for Serine/threonine-protein kinase PLK1 (Homo sapiens) (UniProt P53350).
-18.7

Moving on to the next molecule: COc1ccc(N2CCN(C(=O)CNC(=O)c3ccc(C(C)(C)C)cc3)CC2)cc1
-1.88

Same for COc1ccc(-c2oc(/N=C/N3CCCC3)c(C#N)c2-c2ccc(OC)cc2)cc1
-15.2

Query Cc1ccc(C2NC(=S)NC3=C2N2CCC3CC2)cc1 (stereo unspecified) next
3.93

Moving on to the next molecule: CO/N=C(/CS(=O)(=O)c1ccc(Br)cc1)c1ccc(OC)cc1
2.77

Query Cc1ccc(NC(=O)Nc2ccc3oc(C)nc3c2)cc1 next
8.59

* * *

Molecular target: Serine/threonine-protein kinase PLK1 (Homo sapiens)
Test: Plk1 polo box domain binding inhibitors, primary screen, biochemical, fluorescence polarization (AID 693)
Conditions: Plk1 PBD phosphopeptide binding, active compounds read high,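 tested at about 20 µM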
Among all 97,000 compounds or so, about 130 (0.13%) were called active. The full list was thinned out, with actives kept by preference.
reported endpoint: inhibition (%)
Numbers only; they are read as %.

What value of inhibition has been reported for the following compound? CN(C)C(CNC(=O)CCCOc1ccccc1)c1ccco1 (configuration not stated)
-20

Consider next the compound C/C(=N\NC(=O)c1ccccc1C)c1ccc(N2CCOCC2)cc1 in the same way.
-3.42

Next: O=C1c2ccccc2C(=O)c2c1cccc2N1CCN(Cc2ccccc2)CC1
-20.8

And O=C(Nc1ccc(Cl)cc1)c1cc2nc(C3CC3)cc(C(F)(F)F)n2n1 ?
6.19

For COc1ccc(CCNC(=S)NC(=O)/C=C/c2ccc(C)cc2)cc1OC then?
-11.8

Please give the result for COc1ccc(C(=O)Nc2ccc(CN3CCOCC3)cc2)cc1 too.
-5.41

Let us now turn to CCC(=O)NC(Nc1nc2ccc(C)cc2s1)(C(=O)OC)C(F)(F)F (configuration not stated)
-11.3

* * *

Target: Serine/threonine-protein kinase PLK1 (Homo sapiens)
Test: Plk1 polo box domain binding inhibitors, primary screen, biochemical, fluorescence polarization (AID 693)
Conditions: Plk1 PBD phosphopeptide binding, active compounds read high,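 tested at about 20 µM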
Hit rate of the full screen: of about 97,000 compounds, about 130 (0.13%) were called active. The full list was thinned out, with actives kept by preference.
reported endpoint: inhibition (%)
Please state the figure in %; there is no need to write the unit.

Query: inhibition; subject: COc1ccc2c(Cl)c(C(=O)NCc3ccco3)sc2c1
-10.8

Try this molecule next: Nc1ccccc1SCc1cc([N+](=O)[O-])cc2c1OCOC2
17.1

Likewise for Cn1c(N)c(C(=O)COC(=O)C23CC4CC(CC(C4)C2)C3)c(=O)n(C)c1=O ?
-3.11

Okay, and CCOC(=O)c1sc2nc(SC)nc(-c3ccccc3)c2c1N ?
-9.12

What do we get for N#C/C(=C(\O)CCl)c1nnc2n1CCCCC2 ?
-0.62

Now the same for CCCC(O)(c1ccc(OC)cc1)C(CN(C)C)c1ccccc1 (stereo not drawn)
3.1

Try this molecule next: C/C(=N\NC(=O)Cc1ccc(Cl)cc1)c1ccccn1
4.4

Consider next the molecule O=C(Nc1ccccc1)OCc1cn(-c2ccc(Cl)cc2)nn1 in the same way.
6.75

What about this molecule? COc1cc(C(=O)N2CCN(C/C=C/c3ccccc3)CC2)cc(OC)c1C
-11.1

Next entry: CCCCOc1ccc(N(CC(=O)NCC2CCCO2)C(=O)CCC(=O)Nc2cc(C)ccn2)cc1 (stereo not drawn)
-5.72

Repeat for the following molecule: COc1cc(/C=C2/C(=O)ON=C2C)ccc1OCc1ccccc1F
-10.3

// next record Cc1[nH]c(=O)c(C(=O)/C=C/c2ccccc2)c2c1CCCC2
-8.98

Now the molecule C/C(=N\NC(=O)c1ccc(C)cc1)C1C(=O)c2ccccc2C1=O
-15.6

Next record, please: Cn1c(Cn2nnc3ccccc32)nnc1SCC(=O)c1ccccc1F
-16.2

Repeat for the following molecule: COc1ccc(OC)c(-n2nnnc2SCC(=O)Nc2cc(C)ccc2OC)c1
-6.45

Also check COC(=O)c1c(-c2cccs2)csc1NC(=O)CSc1ncnc2sc(C)c(C)c12
-2.76

Quick one: CCC(C)c1ccc(O)c(/C=N/O)c1 (stereo not drawn)
8.06

Check CC(=O)NC1(c2cccc(F)c2)CCN(CC(=O)NC(C)C)CC1 too.
15.8

Follow-up entry: CCCCNC(=O)c1onc(CSc2cccc(OC)c2)c1C(=O)O
25.6

Same for C/C(=N\NS(=O)(=O)c1cccc([N+](=O)[O-])c1)c1cc2ccccc2o1
22

Same for Cc1nn(Cc2ccccc2)c2c1C(c1ccccc1)C(C#N)=C(N)O2 (stereo not drawn)
17

Next molecule up: COC(=O)c1sccc1NC(=O)CCC1CCCC1
-8.56

Next: CC(C)Oc1ccc(CCc2n[nH]c(=S)n2Cc2ccccc2)cc1
-2.84

Here is the next molecule: O=C(CSCc1ccc(Cl)cc1)N1CCN(Cc2ccc3c(c2)OCO3)CC1
-16.3

Can you check COc1ccc(S(=O)(=O)NCc2ccc(C(=O)N(C)Cc3ccco3)cc2)cc1 next?
-4.97

One more molecule: Cc1noc(/C=C/c2ccco2)c1S(=O)(=O)N1CCC(C(=O)N2CCc3ccccc32)CC1
-18.1

Cool, now COc1cc(/C=N\NC(=O)CNC(=O)c2cccc([N+](=O)[O-])c2)ccc1O
-17.4

# iterate: O=C(CCN1CCc2ccccc2C(O)(c2ccccc2)C1)c1ccc2c(c1)OCCO2 (stereo not drawn)
16.3

Also, CCOC(=O)C(=O)Nc1nc(-c2ccccc2)c(CC)s1 please.
12.1

Same question for CCNc1nc(NC(C)C)nc(OCCOC(=O)c2ccccc2)n1 please.
-7.64

CC(=NCc1ccco1)c1c(C(F)(F)F)[nH]n(-c2nc3ccccc3s2)c1=O ?
9.65

What about this molecule? Cc1ccc(S(=O)(=O)Oc2ccc(/C=N/NC(=O)c3c(Cl)cnn3C)cc2)cc1
14.5

Field entry: COc1ccc(NS(=O)(=O)c2ccc(NC(=S)NC(=O)CC(C)C)cc2)cc1
3.41

Can you handle N#Cc1nc(-c2ccc(OCc3ccccc3)cc2)oc1NCCCN1CCOCC1 next?
-11.4

Could you do the same for CN(CC(=O)Nc1cccc2c1CCCC2)S(=O)(=O)c1ccc(Cl)cc1 , please?
-30

And for CCOC(=O)c1c(-c2ccccc2)csc1NC(=S)NC(=O)c1ccccc1 ?
12

Queued: Cc1ccccc1NC(=S)Nc1cccc([N+](=O)[O-])c1
34.5

Same question, Cc1cc(C)c(S(=O)(=O)c2ccccc2)c(OC(=O)c2c(F)cccc2Cl)n1 this time
-3.99

* * *

Molecular target: Serine/threonine-protein kinase PLK1 (Homo sapiens) (UniProt P53350)
Experiment: Plk1 polo box domain binding inhibitors, primary screen, biochemical, fluorescence polarization (AID 693)
Conditions: Plk1 PBD phosphopeptide binding, active compounds read high,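 tested at about 20 µM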
Out of some 97,000 compounds screened, about 130 (0.13%) were called active. This is one part of a sample in which actives are shown more often than they occur.
reported endpoint: inhibition (%)
Return type: number; implicit unit %.

Need inhibition of CC(=O)c1ccc(Cc2ncc(C(F)(F)F)cc2Cl)s1 , thanks.
25.2

Next up: CC(=O)c1sc(NC(=O)c2cccc3ccccc23)nc1C
-23.4

How about O=c1c([N+](=O)[O-])cc(C(F)(F)F)cn1Cc1cccc(Cl)c1 ?
2.97

Where do these numbers come from? They come from PubChem BioAssay AID693.
